Molecular target: T1, mouse IL-22 (Mus musculus, UniProt Q9JJY9)
T1 sequence (Q9JJY9 34-179): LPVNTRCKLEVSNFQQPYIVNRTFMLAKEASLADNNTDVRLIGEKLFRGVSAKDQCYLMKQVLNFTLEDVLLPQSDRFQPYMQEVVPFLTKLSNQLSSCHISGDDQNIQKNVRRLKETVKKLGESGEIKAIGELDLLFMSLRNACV
Assay: SPR capture assay, affinity to mouse IL-22
Assay type: binding
Details: mouse IL-22, SPR

MOLECULE	UNITS_OF_MEASURE	kd
CPS09: mutant anti-IL-22 antibody binding human and mouse IL-22; light chain LC-04, heavy chain HC-25 (antibody, V domains shown) VH: QVQLVQSGAEVKKPGASVKVSCKASGYIFRSYWIHWIRQPPGKGLEWIGRIYPGTGRTYYNEKFKGRVTISADKSISTAYLQWSSLKASDTAMYYCARSYDYSVAYWGQGTLVTVSS VL: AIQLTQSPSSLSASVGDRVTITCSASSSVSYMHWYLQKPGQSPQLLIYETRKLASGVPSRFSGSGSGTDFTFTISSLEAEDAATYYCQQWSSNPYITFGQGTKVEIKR	s⁻¹	0.000768
CPS04: mutant anti-IL-22 antibody binding human and mouse IL-22; light chain LC-07, heavy chain HC-09 (antibody, V domains shown) VH: QVQLVQSGAEVKKPGASVKVSCKASGYIFRSYWIHWIRQPPGKGLEWIGRIYPGTGNTYYNRKFKGRVTISADKSISTAYLQWSSLKASDTAMYYCARSYDSSVAYWGQGTLVTVSS VL: AIQLTQSPSSLSASVGDRVTITCSASSSVSYMHWYLQKPGQSPQLLIYKTSKLLSGVPSRFSGSGSGTDFTFTISSLEAEDAATYYCQQWSSNPYITFGQGTKVEIKR	s⁻¹	0.00118
